Quick list: A450 per entry.
Molecular target: T1, glutathione S-transferase (GST) (UniProt P08515 1-218 = GST)
T1 construct: also called carrier protein GST
T1 sequence (P08515 whole entry): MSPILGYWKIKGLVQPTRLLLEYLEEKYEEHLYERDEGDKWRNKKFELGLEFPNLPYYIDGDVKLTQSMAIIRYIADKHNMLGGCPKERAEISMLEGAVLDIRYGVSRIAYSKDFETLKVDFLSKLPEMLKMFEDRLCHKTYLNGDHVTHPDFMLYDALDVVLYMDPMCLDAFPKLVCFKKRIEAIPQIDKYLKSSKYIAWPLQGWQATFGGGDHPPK
Experiment: ELISA, Ab 0.010 µg/ml
I only need the number, in A450, no unit after it.

# binder, A450 / A450
rows = [
    ("rabbit monoclonal anti-mouse/human Id3, clone #BCH-4/#16-1 (antibody, V domains shown, Rabbit IgG from a rabbit hybridoma; also called m/h Id3 MoAb 16-1) VH: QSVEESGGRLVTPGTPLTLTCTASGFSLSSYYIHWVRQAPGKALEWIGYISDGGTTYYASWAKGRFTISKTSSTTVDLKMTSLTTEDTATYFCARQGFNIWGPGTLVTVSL VL: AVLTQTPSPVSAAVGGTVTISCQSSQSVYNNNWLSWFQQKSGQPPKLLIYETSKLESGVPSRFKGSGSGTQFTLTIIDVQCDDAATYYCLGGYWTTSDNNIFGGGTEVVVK", 0.046),
    ("rabbit monoclonal anti-mouse/human Id3, clone #BCH-4/#17-3 (antibody, V domains shown, Rabbit IgG from a rabbit hybridoma; also called m/h Id3 MoAb 17-3; BCH-3/#17-3) VH: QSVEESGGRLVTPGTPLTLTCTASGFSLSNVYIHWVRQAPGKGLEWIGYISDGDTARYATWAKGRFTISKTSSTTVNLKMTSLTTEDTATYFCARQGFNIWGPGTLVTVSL VL: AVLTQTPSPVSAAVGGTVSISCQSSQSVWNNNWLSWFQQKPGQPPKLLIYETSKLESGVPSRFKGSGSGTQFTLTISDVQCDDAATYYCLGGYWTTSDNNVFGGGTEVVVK", 0.046),
    ("rabbit monoclonal anti-human Id3, clone #BCH-4/#3-3 (antibody, V domains shown, Rabbit IgG from a rabbit hybridoma; also called h Id3 MoAb 3-3) VH: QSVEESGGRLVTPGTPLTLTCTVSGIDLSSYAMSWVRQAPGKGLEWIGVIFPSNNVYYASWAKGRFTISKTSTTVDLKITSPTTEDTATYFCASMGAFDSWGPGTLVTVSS VL: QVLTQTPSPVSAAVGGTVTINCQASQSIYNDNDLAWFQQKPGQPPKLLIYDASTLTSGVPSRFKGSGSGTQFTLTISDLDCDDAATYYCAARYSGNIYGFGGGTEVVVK", 0.045),
    ("rabbit monoclonal anti-mouse/human Id3, clone #BCH-4/#6-1 (antibody, V domains shown, Rabbit IgG from a rabbit hybridoma; also called m/h Id3 MoAb 6-1) VH: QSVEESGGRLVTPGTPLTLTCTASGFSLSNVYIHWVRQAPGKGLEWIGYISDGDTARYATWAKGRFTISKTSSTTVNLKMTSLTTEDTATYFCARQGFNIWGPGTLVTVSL VL: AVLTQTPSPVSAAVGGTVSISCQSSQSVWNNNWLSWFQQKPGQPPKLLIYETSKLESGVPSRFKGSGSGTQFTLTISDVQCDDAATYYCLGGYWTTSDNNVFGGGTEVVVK", 0.046),
]

Annotate the binder rabbit monoclonal anti-mouse/human Id3, clone #BCH-4/#42-1 (antibody, V domains shown, Rabbit IgG from a rabbit hybridoma; also called m/h Id3 MoAb 42-1) VH: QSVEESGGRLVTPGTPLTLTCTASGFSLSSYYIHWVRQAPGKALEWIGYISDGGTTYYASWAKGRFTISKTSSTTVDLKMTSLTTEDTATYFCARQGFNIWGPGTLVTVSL VL: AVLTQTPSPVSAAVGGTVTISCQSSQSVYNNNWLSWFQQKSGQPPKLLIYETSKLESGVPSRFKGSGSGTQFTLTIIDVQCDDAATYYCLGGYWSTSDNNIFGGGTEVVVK with its measured A450.
0.045
